target: SB10 transposase (synthetic Sleeping Beauty transposon); test: fluorescence lifetime; Full-length MST: 50 mM Tris pH 7.5, 5 mM MgCl2, 300 mM NaCl, 2% glycerol, 50 mM Arg-Glu, 1 mM TCEP, 0.1% Triton X-100, 0.1 mg/ml BSA, 30 nM Cy5-DNA, room temp; conditions: protein: recombinant; tags: Ni-NTA purified; label: 5' Cy5 on forward strand (MST)

[
  {
    "BINDER": "Li (dsDNA) DNA 1: TCCAGTGGGTCAGAAGTTTACATACACTAAGT DNA 2: ACTTAGTGTATGTAAACTTCTGACCCACTGGA",
    "Kd": "17.2 nM"
  },
  {
    "BINDER": "DR-core (dsDNA) DNA 1: TCGGAAGTTTACATACAC DNA 2: GTGTATGTAAACTTCCGA",
    "Kd": "29.4 nM"
  },
  {
    "BINDER": "Lo (dsDNA) DNA 1: CAGTTGAAGTCGGAAGTTTACATACACTTAAG DNA 2: CTTAAGTGTATGTAAACTTCCGACTTCAACTG",
    "Kd": "23 nM"
  }
]
